Below is a list of entries, each paired with its recorded SI value in the LLNA test value.
- Tested on: female mice
- procedure.text: skin sensitization test in accordance with the Local Lymph Node Assay (LLNA) method, SI value
- Type: in vivo
- experimental.parameters: test substance 50.0 w/v percent in acetone/olive oil 4 to 1, 25 μL per ear once a day for three days, BrdU intake
Respond with the number and no other words.

See these solved cases before continuing.
CCC(Cc1ccccc1)(C(=O)c1ccc(N2CCOCC2)cc1)N(C)C (centres unmarked) [Example B3]	10
C=CC(=O)OCCCCCCCCCCCCCCCC(C)C [Example A5, Isostearyl acrylate]	1.4
C=C(C)C(=O)OCC(O)CO (centres unmarked) [Example A8, Glycerol monomethacrylate]	1.1
C=C(C)C(=O)OCC(CO)OC(=O)C(=C)C (centres unmarked) [Example A7, Glycerol dimethacrylate]	1.2

# input for lookup
Query: Can you look up the measured SI value in the LLNA test of C=C(C)C(=O)OCCOCCOC(=O)C(=C)C [Example A1, Diethylene glycol dimethacrylate] for me?
Reply: 1.1
